Where these numbers come from: ChEMBL document CHEMBL1122023

assay: physchem
Description: Ionization constant (pKa)
Threshold check on pKa: at or above 7 gives yes, strictly below gives no.

>>> df
                              smiles_record  group_label
0  CNc1ccc2c(Nc3ccc(NS(C)(=O)=O)cc3OC)c3ccccc3nc2c1          yes
1  CS(=O)(=O)Nc1ccc(NS(C)(=O)=O)c(Nc2c3ccccc3nc3ccccc23)c1           no
2  COc1cc(NS(C)(=O)=O)ccc1Nc1c2ccccc2nc2ccc([N+](=O)[O-])cc12           no

Tell me whether pKa is at least 7 here: CN(C)c1ccc2nc3ccccc3c(Nc3ccc(NS(C)(=O)=O)cc3)c2c1
yes

====

assay: physchem
test_readout: pKa
API note: the answer field is a bare number with no unit suffix.

Example cases with answers are listed next.
>>> df
                              smiles_record  test_readout  value
0  COc1cc(NS(C)(=O)=O)ccc1Nc1c2cccc(C)c2nc2c(C)cccc12           pKa   6.91
1  COS(=O)(=O)Nc1ccc(Nc2c3ccccc3nc3cc(Cl)ccc23)cc1           pKa   6.57
2  Cc1ccc2c(Nc3ccc(NS(C)(=O)=O)cc3)c3cccc(C)c3nc2c1           pKa   7.46

Please give the documented pKa of COc1cc(NS(C)(=O)=O)ccc1Nc1c2ccccc2nc2cc(C(C)(C)C)ccc12
7.64

Please give the documented pKa of COc1cc(NS(C)(=O)=O)ccc1Nc1c2ccc(I)cc2nc2ccc(N)cc12
6.72

====

Overview of reported pKa across a group of compounds:
experiment: physchem
API note: the answer field is a bare number with no unit suffix.

                                   compound  value
0  CCCOc1cccc2c(Nc3ccc(NS(C)(=O)=O)cc3OC)c3ccccc3nc12   7.36

Now consider a different compound.
Please give the documented pKa of COc1cc(NS(C)(=O)=O)ccc1Nc1c2ccc(Cl)cc2nc2cc(Cl)ccc12
6.18

====

Overview of reported pKa across a group of molecules:
assay: physchem
API note: the answer field is a bare number with no unit suffix.

Example cases with answers are listed next.
In [3]: df
Out[3]:
                              smiles_record  value
0  COc1cc(NS(C)(=O)=O)ccc1Nc1c2ccccc2nc2cc(Br)c(N)cc12   7.01
1  COc1cc(NS(=O)(=O)OC)ccc1Nc1c2ccccc2nc2c(CCC(N)=O)cccc12   7.15

Please give the documented pKa of COc1ccccc1Nc1c2ccccc2nc2ccc(C(C)C)c(NS(C)(=O)=O)c12
7.4

Please give the documented pKa of CC(=O)Nc1ccc2c(Nc3ccc(NS(C)(=O)=O)cc3)c3ccc(NC(C)=O)cc3nc2c1
7.55

Please give the documented pKa of COc1cc(NS(C)(=O)=O)ccc1Nc1c2ccccc2nc2ccncc12
5.94

Please give the documented pKa of COc1cc(NS(C)(=O)=O)ccc1Nc1c2ccc(C)cc2nc2c(C)cccc12
7.67

====

experiment: physchem
test_readout: pKa
API note: the answer field is a bare number with no unit suffix.

Example cases with answers are listed next.
In [3]: df
Out[3]:
                                   compound  test_readout  value
0  COc1cc(NS(C)(=O)=O)ccc1Nc1c2ccc(Cl)cc2nc2c(OC)cccc12           pKa   6.79
1  COc1ccc2c(Nc3ccc(NS(C)(=O)=O)cc3)c3ccc(Cl)cc3nc2c1           pKa   6.91

Now consider a different compound.
Please give the documented pKa of COc1cc(NS(C)(=O)=O)ccc1Nc1c2ccccc2nc2c(OCC(O)CO)cccc12 (stereo in doubt; 303)
7
